# assay name: Particle sizing assay (Zetasizer Nano ZS), in vivo formulations
# Type: physicochemical
# stated conditions: in vivo formulation A: Cationic lipid/Example 73/DSPC/Chol 45/10/15/30 wt %, lipid:siRNA 25:1
observable: Size distribution (PDI)

[[record]]
compound = "CCCCC/C=C\\C/C=C\\CCCCCCCCOCC(CCN1CCOCC1)OCCCCCCCC/C=C\\C/C=C\\CCCCC (stereo not shown) [Example 2]"
observable = "Size distribution (PDI)"
reported_measurement = "(0.1)"


Reference for the values: patent US20100055169A1
